Quantity kind: Ki (nM)
Output spec: scalar in nM, unitless text.

# CC(C)N1CCC(Oc2ccc3nc(C(=O)N4CCC4)ccc3c2)CC1 with UniProt:Q9Y5N1: Ki is 78
